Molecular target: full length (FL) LXRα (Homo sapiens, UniProt Q13133)
Construct: the full length (FL) proteins of LXRα (amino acids 1-447); NP005684; expressed in transfected cells; host or cells: HEK293
Sequence (Q13133 whole entry, the tested form may be a part): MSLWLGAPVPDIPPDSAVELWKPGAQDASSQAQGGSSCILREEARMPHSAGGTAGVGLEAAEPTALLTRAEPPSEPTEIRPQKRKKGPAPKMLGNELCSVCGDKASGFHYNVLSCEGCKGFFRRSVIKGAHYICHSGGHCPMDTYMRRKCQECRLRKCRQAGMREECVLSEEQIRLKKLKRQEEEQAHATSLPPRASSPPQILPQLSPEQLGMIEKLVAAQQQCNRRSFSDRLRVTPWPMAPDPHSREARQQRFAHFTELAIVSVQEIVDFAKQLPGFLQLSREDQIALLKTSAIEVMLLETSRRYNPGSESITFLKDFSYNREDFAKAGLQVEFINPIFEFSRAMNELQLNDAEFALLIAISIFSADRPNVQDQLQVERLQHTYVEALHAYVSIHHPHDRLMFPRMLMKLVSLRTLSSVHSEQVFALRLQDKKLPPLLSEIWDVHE
Assay: LXR Gal4 reporter transient transfection assay (FL-M2H Gal4α)
Format: cell-based
Conditions: HEK293 cells, full length LXRα; read-out: FL-M2H Gal4α (EC50 range)
MEASURED PARAMETER: EC50

Some entries whose results are on file:
Input: Fill in: EC50 of COC(=O)c1ccc(-c2cccc(-c3c(-c4c(C)cccc4C#N)c4cc(F)ccc4n3S(=O)(=O)c3ccc(C(F)F)cc3)c2)c(Cl)c1 is ___
Output: < 100 nM

Input: Fill in: EC50 of Cc1ccc(S(=O)(=O)n2c(-c3cccc(-c4ccc(C(=O)O)c(F)c4Cl)c3)c(-c3ccsc3C#N)c3cc(F)ccc32)cc1 is ___
Output: < 100 nM

Input: Fill in: EC50 of O=C(O)c1ccc(-c2cccc(-c3c(-c4ccccc4C4(F)CNC4)c4cc(F)ccc4n3S(=O)(=O)c3ccc(C(F)F)cc3)c2)c(Cl)c1 is ___
Output: 100 to 1000 nM

Further cases:
Input: Fill in: EC50 of Cc1ccc(S(=O)(=O)n2c(-c3cccc(N4CCC(C)(C(=O)O)CC4)c3)c(-c3ccsc3C#N)c3cc(F)ccc32)cc1 is ___
Output: < 100 nM

Source of measurements: patent US11618747B2
